The measurements presented in this section are drawn from paper PMC2994877.

# targetOrSystem: turkey β3C-adrenoceptor (tβ3C) (Meleagris gallopavo, UniProt A0A803YLI8)
# Sequence (A0A803YLI8 entry or part of it): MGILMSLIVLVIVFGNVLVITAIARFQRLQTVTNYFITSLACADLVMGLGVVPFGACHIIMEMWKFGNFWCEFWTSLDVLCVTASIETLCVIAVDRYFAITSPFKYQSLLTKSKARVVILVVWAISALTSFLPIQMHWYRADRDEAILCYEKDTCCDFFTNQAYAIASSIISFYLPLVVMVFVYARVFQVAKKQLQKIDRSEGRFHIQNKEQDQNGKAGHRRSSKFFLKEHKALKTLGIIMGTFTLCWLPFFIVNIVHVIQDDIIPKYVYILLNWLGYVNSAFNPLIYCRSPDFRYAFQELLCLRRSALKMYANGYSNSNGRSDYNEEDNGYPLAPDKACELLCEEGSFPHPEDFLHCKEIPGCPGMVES
# assayDetails: CRE-SPAP production, CHO tβ3C cells
# Assay type: cell-based
# measurementSetup: Log KD CGP20712A, vs agonist BRL37344, CRE-SPAP, CHO tβ3C cells
measure: Kd (µM)

>  <compound>
Cn1cc(C(F)(F)F)nc1-c1ccc(OCC(O)CNCCOc2ccc(O)c(C(N)=O)c2)cc1 (stereo not shown) [CGP20712A]

>  <measure>
Kd

>  <dataValue>
3.09

$$$$

----------
# targetOrSystem: turkey β3C-adrenoceptor (tβ3C) (Meleagris gallopavo, UniProt A0A803YLI8)
# assayDetails: CRE-SPAP production, CHO tβ3C cells
# Assay type: cell-based
# measurementSetup: Log KD ICI118551, vs agonist noradrenaline, CRE-SPAP, CHO tβ3C cells
measure: Kd (nM)

>  <molecule>
Cc1ccc(OCC(O)C(C)NC(C)C)c2c1CCC2 (stereo not shown)

>  <uom>
nM

>  <dataValue>
1.38

$$$$
